This listing pairs compounds with measured pIC50.
systemTested: catalytic domain of human Bub1 (amino acids 704-1085) (Homo sapiens (Human))
Sequence (O43683 704-1085): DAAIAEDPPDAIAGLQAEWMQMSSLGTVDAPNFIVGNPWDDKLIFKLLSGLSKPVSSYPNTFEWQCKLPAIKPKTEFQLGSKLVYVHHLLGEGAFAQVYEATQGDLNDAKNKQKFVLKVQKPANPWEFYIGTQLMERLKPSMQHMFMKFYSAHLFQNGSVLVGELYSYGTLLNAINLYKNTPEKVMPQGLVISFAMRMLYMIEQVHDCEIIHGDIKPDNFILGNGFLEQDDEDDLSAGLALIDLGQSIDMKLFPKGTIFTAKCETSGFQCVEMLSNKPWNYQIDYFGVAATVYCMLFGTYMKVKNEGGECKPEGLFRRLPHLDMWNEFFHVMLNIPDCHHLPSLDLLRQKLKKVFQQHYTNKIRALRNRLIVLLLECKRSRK
Bear in mind: pIC50 is minus log10 of a mol/L concentration; give just that figure.

COc1cnc(-c2nn(Cc3c(F)ccc(OC)c3F)c3ccccc23)nc1Nc1ccncc1
8.35
O=C(O)c1cnccc1Nc1nc(-c2nn(Cc3ccccc3F)c3ccccc23)ncc1OCCO
7.96
CCOc1cc(F)c(Cn2nc(-c3nccc(N(CC4(CO)COC4)c4ccncc4)n3)c3ccccc32)c(F)c1
5.62
CCOc1cc(F)c(Cn2nc(-c3nccc(N(C(C)=O)c4ccncc4)n3)c3ccccc32)c(F)c1
6.77
COc1ccc(Cn2nc(-c3ncc(O)c(Nc4ccncc4)n3)c3ccccc32)cc1
8.01
COC(=O)c1ccc(Cl)c(Cn2nc(-c3ncc(OC)c(Nc4ccncc4)n3)c3ccccc32)c1Cl
8.08

INPUT: pIC50 lookup needed for CCOc1cc(F)c(Cn2nc(-c3ncc(OCC(=O)N4CC(F)C4)c(Nc4ccncc4)n3)c3ccccc32)c(F)c1 , thanks.
OUTPUT: 8.11

INPUT: pIC50 lookup needed for COc1cnc(-c2nn(Cc3c(F)cc(C(C)=O)cc3F)c3ccccc23)nc1Nc1ccncc1 , thanks.
OUTPUT: 8.52

INPUT: pIC50 lookup needed for COc1cnc(-c2nn(Cc3c(F)cc(C4CC4)cc3F)c3ccccc23)nc1Nc1ccncc1 , thanks.
OUTPUT: 8.41

INPUT: pIC50 lookup needed for NC(=O)c1cnccc1Nc1nc(-c2nn(Cc3ccccc3F)c3ccccc23)ncc1OCCO , thanks.
OUTPUT: 8.19

INPUT: pIC50 lookup needed for COc1cnc(-c2nn(Cc3c(OCC(F)(F)F)cc(Br)cc3OCC(F)(F)F)c3ccccc23)nc1Nc1ccncc1 , thanks.
OUTPUT: 5.55

INPUT: pIC50 lookup needed for COc1cnc(-c2nn(Cc3c(Cl)ccc(C(N)=O)c3Cl)c3ccccc23)nc1Nc1ccncc1 , thanks.
OUTPUT: 7.40

INPUT: pIC50 lookup needed for CCOc1cc(F)c(Cn2nc(-c3nccc(N(C(=O)COC)c4ccncc4)n3)c3ccccc32)c(F)c1 , thanks.
OUTPUT: 7.64

INPUT: pIC50 lookup needed for COc1cnc(-c2nn(Cc3c(F)cc(Br)cc3F)c3ccccc23)nc1Nc1ccncc1 , thanks.
OUTPUT: 8.14
